Measured values drawn from the RNAGym collection of RNA variant scans (doi:10.7554/elife.80360) for this set.

B1: Twister Ribozyme (parent)
chain: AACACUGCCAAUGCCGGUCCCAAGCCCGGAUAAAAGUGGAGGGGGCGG

# Variants of: B1
# method_notes: self-cleavage, relative activity (ratio to wild type); higher = more cleavage; co-transcriptional
Catalogue of self-cleavage readings, one per entry.

Asked: Please give measured self-cleavage of the following entry: AACACUGCCAAUGCCGGUCCGAAGCCCGGAUAAAAGUGGAGGGGGCGA
Given back: 0.146

Asked: State its self-cleavage for this variant: AACACUGCCAAUGCCGGUCCCAAGCCCAGAUAAAGGUGGAGGGGGCGG
Given back: 0.575

Asked: Fill in reported self-cleavage for this entry: AACACUGCCAAUGCCGGUCCCAAGCCCGGAUUAAAGUGGAGGGGUCGG
Given back: 0.819

Asked: Complete the entry with self-cleavage for AACACUGCCAAUCCCGGUCCCUAGCCCGGAUAAAAGUGGAGGGGGCGG
Given back: 0.16

Asked: Give recorded self-cleavage. AACACUGCCAAAGCCGGUCCCAAGCCCGGAUAAAAGUGAAGGGGGCGG
Given back: 0.677

Asked: Determine from records and report self-cleavage for AACAAUGCCAAUGCCGGUACCAAGCCCGGAUAAAAGUGGAGGGGGCGG
Given back: 0.0624
